target: Melanocortin receptor 3 (Homo sapiens); test: Displacement of [125I]NDP-alpha-MSH from human MC3R expressed in HEK293 cells
Sequence (P41968 whole entry): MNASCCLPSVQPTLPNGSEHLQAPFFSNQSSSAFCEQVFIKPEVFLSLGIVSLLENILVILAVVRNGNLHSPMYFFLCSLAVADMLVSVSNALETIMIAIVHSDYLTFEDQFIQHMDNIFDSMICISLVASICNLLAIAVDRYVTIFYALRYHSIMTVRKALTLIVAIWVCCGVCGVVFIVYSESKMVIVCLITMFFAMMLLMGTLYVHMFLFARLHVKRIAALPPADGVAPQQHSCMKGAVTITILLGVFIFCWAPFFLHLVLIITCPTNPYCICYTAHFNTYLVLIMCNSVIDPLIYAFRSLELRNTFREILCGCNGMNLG
pIC50: −log10 of the molar value.
MEASURED_QUANTITY: pIC50

| STRUCTURE_SMILES_STRING | MEASURED_QUANTITY | DATA_VALUE |
| --- | --- | --- |
| O=C(CCc1c[nH]c2ccccc12)N1C[C@@H]2CCCN2C[C@@H]1Cc1ccccc1 | pIC50 | < 5.00 |
| O=C(Cc1ccccc1)N1C[C@@H]2CCCN2C[C@H]1Cc1ccccc1 | pIC50 | 8.30 |
| O=C(CCc1c[nH]c2ccccc12)NCCCCCC(=O)N1C[C@@H]2CCCN2C[C@@H]1Cc1ccccc1 | pIC50 | < 5.00 |
| O=C(CCC(=O)N1C[C@@H]2CCCN2C[C@@H]1Cc1ccccc1)NCCc1c[nH]c2ccccc12 | pIC50 | < 5.00 |
| O=C(CCC(=O)N1C[C@@H]2CCCN2C[C@H]1Cc1ccccc1)NCCc1c[nH]c2ccccc12 | pIC50 | < 5.00 |
| O=C(CCc1c[nH]c2ccccc12)N1C[C@@H]2CCCN2C[C@H]1Cc1ccccc1 | pIC50 | 8.92 |
| NC(N)=NCCC[C@H](NC(=O)CCc1c[nH]c2ccccc12)C(=O)N1C[C@@H]2CCCN2C[C@@H]1Cc1ccccc1 | pIC50 | < 5.00 |
| O=C(Cc1ccccc1)N1C[C@@H]2CCCN2C[C@@H]1Cc1ccccc1 | pIC50 | 6.46 |

====

target: UniProt:Q01726; test: Activity at human MC1R expressed in HEK293 cells assessed as activation of adenylate cyclase; assay type: functional, cell-based; set-up: concentration or dose not given beside the values

| STRUCTURE_SMILES_STRING | Activity |
| --- | --- |
| O=C(CCc1c[nH]c2ccccc12)NCCCCCC(=O)N1C[C@@H]2CCCN2C[C@@H]1Cc1ccccc1 | 0% |
| N=C(N)NCCC[C@H](NC(=O)CCc1c[nH]c2ccccc12)C(=O)N1C[C@@H]2CCCN2C[C@@H]1Cc1ccccc1 | 20% |
| O=C(CCC(=O)N1C[C@@H]2CCCN2C[C@H]1Cc1ccccc1)NCCc1c[nH]c2ccccc12 | 0% |

====

Documented IC50 across a set of compounds
target: UniProt Q01726; experiment: Displacement of [125I]NDP-alpha-MSH from human MC1R expressed in HEK293 cells

| STRUCTURE_SMILES_STRING | IC50 |
| --- | --- |
| O=C(CCc1c[nH]c2ccccc12)N1C[C@@H]2CCCN2C[C@H]1Cc1ccccc1 | 4 nM |
| O=C(Cc1ccccc1)N1C[C@@H]2CCCN2C[C@H]1Cc1ccccc1 | 1.3 nM |
| O=C(CCC(=O)N1C[C@@H]2CCCN2C[C@H]1Cc1ccccc1)NCCc1c[nH]c2ccccc12 | > 10000 nM |
| O=C(CCc1c[nH]c2ccccc12)N1C[C@@H]2CCCN2C[C@@H]1Cc1ccccc1 | > 10000 nM |
| O=C(Cc1ccccc1)N1C[C@@H]2CCCN2C[C@@H]1Cc1ccccc1 | 2.2 nM |
| NC(N)=NCCC[C@H](NC(=O)CCc1c[nH]c2ccccc12)C(=O)N1C[C@@H]2CCCN2C[C@@H]1Cc1ccccc1 | > 10000 nM |
| O=C(CCc1c[nH]c2ccccc12)NCCCCCC(=O)N1C[C@@H]2CCCN2C[C@@H]1Cc1ccccc1 | > 10000 nM |
| O=C(CCC(=O)N1C[C@@H]2CCCN2C[C@@H]1Cc1ccccc1)NCCc1c[nH]c2ccccc12 | > 10000 nM |
